- assayed.system: T1, Recombinant human insulin receptor (B form) ECD (R&D Systems) (human, UniProt P06213 28-956, limits assumed)
- T1 construct: extracellular domain; also called INSR-ECD; h-INSR
- protocol.details: SPR (Biacore 2000), INSR-ECD immobilised, purified Fab injected, 1:1 fit
Overview of reported Kd across a group of binders:

{"columns": ["binder", "Kd [nM]"],
 "data": [
  ["RHF.15.05896.075 (Fab, V domains shown, Untagged Fab) VH: EVQLVETGGGVVQPGRSLRLSCAASGFKFSSYAMHWVRQAPGKGLEWVAVISYSGSNKYYADSVKGRFTISRDNSKNTLYLQMNSLRAEDTAVYYCARHEWGFGYDYWGQGTTVTVSS VL: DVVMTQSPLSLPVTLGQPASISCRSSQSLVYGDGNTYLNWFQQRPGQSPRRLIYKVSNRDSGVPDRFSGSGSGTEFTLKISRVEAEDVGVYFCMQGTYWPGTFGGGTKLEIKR", 1.4],
  ["RHF.15.05896.020 (Fab, V domains shown, Untagged Fab) VH: EVQLVETGGGVVQPGRSLRLSCAASGFKFSSYAMHWVRQAPGKGLEWVAVISWSGSNKYYADSVKGRFTISRDNSKNTLYLQMNSLRAEDTAVYYCARHEWGFGFDEWGQGTTVTVSS VL: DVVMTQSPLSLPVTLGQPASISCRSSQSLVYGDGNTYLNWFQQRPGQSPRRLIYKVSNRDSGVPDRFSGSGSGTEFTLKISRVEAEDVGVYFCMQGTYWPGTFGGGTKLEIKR", 1.5],
  ["RHF.15.05896.044 (Fab, V domains shown, Untagged Fab) VH: EVQLVETGGGVVQPGRSLRLSCAASGFKFSSYAMHWVRQAPGKGLEWVAVISNSGSNKYYADSVKGRFTISRDNSKNTLYLQMNSLRAEDTAVYYCARHEWGFGFDKWGQGTTVTVSS VL: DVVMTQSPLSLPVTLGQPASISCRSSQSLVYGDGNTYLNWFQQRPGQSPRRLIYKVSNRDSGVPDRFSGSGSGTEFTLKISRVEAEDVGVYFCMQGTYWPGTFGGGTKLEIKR", 1.3]
]}
